The measurements presented in this section are drawn from ChEMBL document CHEMBL5352398.

assay: Half life in Sprague-Dawley rat at 5 mg/kg, iv and measured upto 24 hrs by LC-MS/MS analysis; assay type: ADME, organism-based; conditions: in vivo
Quick reference: half-life of the listed items.
Answer format: numeric, h implied, no suffix.

Please fill in: half-life reported for CCc1oc2ccccc2c1C(=O)c1cc(Br)c(O)c(Br)c1 = 3.03

Please fill in: half-life reported for O=C(c1cc(Cl)c(O)c(Cl)c1)n1ccc2cccnc21 = 6.8

---

assay: Cytotoxicity against human HepG2 cells assessed as inhibition of cell growth at 400 uM incubated for 72 hrs by MTT assay relative to control; type: toxicity, cell-based
QUANTITY MEASURED: inhibition at 72 h, 400 µM (%)
Answer format: numeric, % implied, no suffix.

Please fill in: inhibition at 72 h, 400 µM reported for CCc1oc2ccccc2c1C(=O)c1cc(Br)c(O)c(Br)c1 = 65.7
